# assayDetails: folding enthalpy; higher = less favourable; fluorescence melt of hairpins on a sequencing array, two-state fit
# recordedConditions: sodium 0.088 M
Outcome label depends on folding enthalpy relative to -90 kJ/mol: at/above gives satisfied, below gives not satisfied.

[[record]]
sequenceentry = "GAATGCGAAAGCAGTTC ((((((....))).)))"
labelclass = "satisfied"

[[record]]
sequenceentry = "GATCGTGTCGACGATC ((((((....))))))"
labelclass = "not satisfied"

[[record]]
sequenceentry = "GCTCGACGAAAGTCAAGC (((.(((....))).)))"
labelclass = "not satisfied"

[[record]]
sequenceentry = "GGACAACGAAAGTTATCC (((.(((....))).)))"
labelclass = "not satisfied"

[[record]]
sequenceentry = "CGGGCGGAAACGCTACCG ((((((....)))..)))"
labelclass = "not satisfied"


Inquiry: Answer whether folding enthalpy of GAGACACCGAAAGGTCTC (((..(((....)))))) is greater than or equal to -90 kJ/mol.
Reply text: satisfied

Inquiry: Reported folding enthalpy reaches at least -90 kJ/mol for GATCTCCGTGAGATC ((((((...)))))) ?
Reply text: not satisfied

Inquiry: Check if folding enthalpy >= -90 kJ/mol (inclusive). Item: GATCATGCGCATGATC ((((((....))))))
Reply text: not satisfied

----------
# assayDetails: melting temperature; fluorescence melt of hairpins on a sequencing array, two-state fit, raised by 9.35 °C to match UV melts
# recordedConditions: sodium 0.088 M
readoutLabel: Tm

Some solved cases for reference:
[[record]]
sequenceentry = "GTTAAGCGAAAGCTAAC (((.(((....))))))"
readoutlabel = "Tm"
reported = "44.4 °C"

[[record]]
sequenceentry = "GATCGAGAATCGATC ((((((...))))))"
readoutlabel = "Tm"
reported = "59.5 °C"


Could I get Tm for every one of these entries?
1. GCAAGAGGAAACTTTTGC ((((.((....)).))))
2. GCGACTGTCGC ((((...))))

Reply text:
39 °C
48 °C

// for each sequence in input: emit Tm
1. GAGCCCGAAAGGGAGCTC ((((((....)))..)))
2. TGTATGAAAATACA (((((....)))))
3. GAACCCGGAAACGAGTTC ((((.((....)).))))
4. GTGGACTCGAAAGAGCAC (((..(((....))))))
5. GACTAGGGAAACCCAGTC ((((.((....)).))))

Reply text:
55.6 °C
34.5 °C
40.8 °C
39.7 °C
40.2 °C

----------
# assayDetails: folding enthalpy; higher = less favourable; fluorescence melt of hairpins on a sequencing array, two-state fit
# recordedConditions: sodium 0.088 M
readoutLabel: folding enthalpy (kcal/mol)
Numbers only, in kcal/mol.

Worked cases, answers included:
[[record]]
sequenceentry = "GATCCCTTAGGGGATC ((((((....))))))"
readoutlabel = "folding enthalpy"
endpointunit = "kcal/mol"
reported = -43.7

[[record]]
sequenceentry = "GGTGAAGGAAACTTTACC (((.(((....))).)))"
readoutlabel = "folding enthalpy"
endpointunit = "kcal/mol"
reported = -31.6

[[record]]
sequenceentry = "GGTGGTGGAAACACTACC (((.(((....))).)))"
readoutlabel = "folding enthalpy"
endpointunit = "kcal/mol"
reported = -29.8

[[record]]
sequenceentry = "GCTGAGCGAAAGCACGGC ((.(.((....)).).))"
readoutlabel = "folding enthalpy"
endpointunit = "kcal/mol"
reported = -21.5


Provide folding enthalpy values for the following items, in order.
1. GGGCACGGAAACGTACCC (((.(((....))).)))
2. GCGTTGCGAAAGCCAGGC ((.(.((....)).).))

Reply text:
1: -40.1; 2: -16.9

----------
# assayDetails: melting temperature; fluorescence melt of hairpins on a sequencing array, two-state fit, raised by 9.35 °C to match UV melts
# recordedConditions: sodium 0.088 M
Met if Tm is below 50 °C. Not met if not; exact matches included in Not met.

Look over these answered cases.
[[record]]
sequenceentry = "GATCCCTGCGGGGATC ((((((....))))))"
labelclass = "Not met"

[[record]]
sequenceentry = "GATTTTACGAAAGTAATC (((..(((....))))))"
labelclass = "Met"

[[record]]
sequenceentry = "GCGCATGCGAAAGCACGC (((..(((....))))))"
labelclass = "Not met"


Consider the record given below.
Inquiry: Would you kindly verify if Tm of GGAACTGGAAACAGCTCC (((.(((....))).))) is strictly less than 50 °C?
Reply text: Met

----------
# assayDetails: folding enthalpy; higher = less favourable; fluorescence melt of hairpins on a sequencing array, two-state fit
# recordedConditions: sodium 0.088 M
Answer Not satisfied if folding enthalpy is under -30 kcal/mol, and Satisfied if it is -30 kcal/mol or more.

Solved cases (5 shown):
[[record]]
sequenceentry = "GATCAGCCTCCTGATC ((((((....))))))"
labelclass = "Not satisfied"

[[record]]
sequenceentry = "GTAACCGAAAGGTGCTAC ((((((....)))..)))"
labelclass = "Satisfied"

[[record]]
sequenceentry = "GCGTGAGTACGC ((((....))))"
labelclass = "Satisfied"

[[record]]
sequenceentry = "GATCGAATACTCGATC ((((((....))))))"
labelclass = "Not satisfied"

[[record]]
sequenceentry = "ACGAGGAAACTCGT (((((....)))))"
labelclass = "Satisfied"


Inquiry: Test whether the sequence GCTCAGCGAAAGCGGTGC ((.(.((....)).).)) records folding enthalpy of -30 kcal/mol or higher.
Reply text: Satisfied

----------
# assayDetails: folding enthalpy; higher = less favourable; fluorescence melt of hairpins on a sequencing array, two-state fit
# recordedConditions: sodium 0.088 M
Exercise: for every item that follows, state its recorded folding enthalpy.
Give bare numbers, in kcal/mol.

Example sequences with recorded folding enthalpy:
[[record]]
sequenceentry = "GATCACTATGTGATC ((((((...))))))"
reported = -38.8

[[record]]
sequenceentry = "GAGCTAGGAAACTAGCCC (.(((((....))))).)"
reported = -12.9

[[record]]
sequenceentry = "GGTTACGGAAACGTGACC (((.(((....))).)))"
reported = -36.4

[[record]]
sequenceentry = "GCAGTAACGAAAGTTTGC (((..(((....))))))"
reported = -21.9

[[record]]
sequenceentry = "GATCCGTTCCGGATC ((((((...))))))"
reported = -46

[[record]]
sequenceentry = "GGGAGCGAAAGCTTACCC ((((((....)))..)))"
reported = -16.9

[[record]]
sequenceentry = "GACTAACGAAAGTTCGTC (((.(((....))).)))"
reported = -30.5

[[record]]
sequenceentry = "GATCTTTGCAAAGATC ((((((....))))))"
reported = -57.2


For every listed record, write down its folding enthalpy.
1. GGCTAGGAAACTAGCC ((((((....))))))
2. GTAGGGCGAAAGCCGTAC (((.(((....))).)))
3. GGCCAGCGAAAGCTTGCC (((.(((....))).)))
4. GAAAGCGAAAGCTCGTTC ((((((....)))..)))

Reply text:
-34.8
-23.6
-50.7
-9.57

----------
Give Tm for every item shown.
# assayDetails: melting temperature; fluorescence melt of hairpins on a sequencing array, two-state fit, raised by 9.35 °C to match UV melts
# recordedConditions: sodium 0.088 M
Give bare numbers, in °C.

Some solved cases for reference:
[[record]]
sequenceentry = "GTATAACCGAAAGGTTAC (((..(((....))))))"
reported = 31.8

[[record]]
sequenceentry = "GGAACCGGAAACGGTTTC (.(((((....))))).)"
reported = 54.5

[[record]]
sequenceentry = "GATCATGCGCATGATC ((((((....))))))"
reported = 57.2

[[record]]
sequenceentry = "GATCGCAGGGGCGATC ((((((....))))))"
reported = 67.5

[[record]]
sequenceentry = "GATCGCTGGCGCGATC ((((((....))))))"
reported = 65.9


Continue with the sequence presented below.
Inquiry: Retrieve Tm measured for GATGAGGAAACTCATC ((((((....)))))) and print it.
Reply text: 52.8

----------
# assayDetails: melting temperature; fluorescence melt of hairpins on a sequencing array, two-state fit, raised by 9.35 °C to match UV melts
# recordedConditions: sodium 0.088 M
Please respond with reported Tm for every item in the list.
Give bare numbers, in °C.

[[record]]
sequenceentry = "GATCGGATGACCGATC ((((((....))))))"
reported = 55.8


Provide each entry's Tm from the list below.
1. GTCAAATCGAAAGATGAC (((..(((....))))))
2. GTACTCGAAAGAGGCTAC ((((((....)))..)))
3. GTGATAGGAAACTGTCAC ((((.((....)).))))
4. GTTCGCGAAAGCGAGAAC ((((((....)))..)))
5. GAAAAAGAAATTTTTC ((((((....))))))
6. TTATCGAAAGATAA (((((....)))))
7. CGGCGCGGAAACGCTCCG (((.(((....))).)))
8. GCACATGGAAACATGTGC (((((((....)))))))

Reply text:
[35.6, 37.4, 45.7, 42.3, 28.1, 36.5, 56.5, 67.4]

Count: 7. Required value per item: Tm.
1. TGTCCGAAAGGACA (((((....)))))
2. GCTCTCGAAAGAGCAGC ((((((....))).)))
3. GTTGCACGAAAGTGTAAC (((.(((....))).)))
4. GTAAGCGGAAACGTTTAC ((((.((....)).))))
5. GAGCAGGAAACTGCTC ((((((....))))))
6. GGTGACGAAAGTCCAACC ((((((....)))..)))
7. GAAATTGGAAACGATTTC (((((.(....).)))))

Reply text:
[68.8, 48.2, 55.5, 43, 62.3, 37.7, 37.6]

Return reported Tm values for all items listed beneath this line.
1. GCTCTGCGAAAGCTGGGC ((.(.((....)).).))
2. GTCTACGAAAGTAGTGAC ((((((....)))..)))
3. GGCCTCGAAAGAGGGGCC ((((((....)))..)))
4. GGAACAGGAAACTATTCC ((((.((....)).))))
5. GATCACCTGCGTGATC ((((((....))))))
6. GAAATGGGAAACCATTCC (.(((((....))))).)

Reply text:
1: 54.3; 2: 33.4; 3: 54.9; 4: 24.7; 5: 54.9; 6: 31
